Assay: yeast display, Sf9 membrane polyspecificity reagent, FACS + sequencing; frameworks hold sequencing errors
Quantity kind: polyreactivity (PSR sort gate)

QVQLVESGGGLDQAGGSLRLSCAASGRIFTAYAMGWYRQAHGKERELVAAISSGDSTYYADSVKGRFTISRDNAKNTVYLQMNSLKPEDTAVYYCATGVYPDFEYDSWGQGTQVTVSS = low polyreactivity
QVQLVESGGGLVQAGGSLRLSCAASGNIFTYYVMGWYRQAPGKERELVAAISRRGGSTYYADSVKGRFTISRDNAKNTVYLQMNSLKPEDTAVYYCAKKYPRDMDYWGQGTQVTVSS = high polyreactivity
QVQLVESGGGLVQAGGSLRLSCAASGSIFTYAMGWYRQAPGKERELVAAITYSGGRTDYADSVKGRFTISRDNAKNTVYLQMNSLKPEDTAVYYCAVRARPYPYYGALMYYWGQGTQVTVSS = low polyreactivity
QVQLVESGGGLVQAGGSLRLSCAASGSTISVNAMGWYRQAPGKERELVAAISDRGGSTYYADSVKGRFTISRDNAKNTVYLQMNSLKPEDTAVYYCAALFLRVTYFRLGLYSYEYWGQGTQVTVSS = low polyreactivity
QVQLVESGGGLVQAGGSLRLSCAASGITFSVYTMGWYRPAPGKERELVAAIDSDGITNYADSVKGRFTISRDNAKNNVYLQMNSLKPEDTAVYYCAKQSGRADGVSGFDYWGQGTQVTVSS = low polyreactivity
QVQLVESGGGLVQAGGSLRLSCAASGSTFTYNAMGWYRQAPGKERELVAAIRSNGGSTYADSVKGRFTISRDNAKNTVYLQMNCLKPEDTAVYYWAARWRDYYRWGSRGGYGYWGQGTQVTVSS = high polyreactivity
QVQLVESGGGLVQAGGSLRLICAASGRTIYIYTMGWYRQAPGKERELVASISWNGGRTYYADSVKGRFTISRDNAKNTVYLQMNSLKPEDTAVYYCAAQYGVYDYLGQGTQVTVSS = low polyreactivity
QVQLVESGGGLVQAGGSLRLSCGASGSTFDHYAMGWYRQAPGKERELVAAITRSGGSTYYADSVKGRFTISRDNAKNTVYIQMNSLKPEDTAVYYCNARRWITSDYWGQGTQVTVSS = high polyreactivity
QVQLVESGGGVVQAGGSLRLSCPASGSIFETYVMGWYRPAPGIERELVAAINSGGSTNYADSVKGRFTISRDNAKNTVYLQMNRLKPEDTAVYYCNADWFTPAQPWYRSFIRYDYWGQGTQVTVSS = low polyreactivity
QVQLVESGGGLVQAGGSLRLSCAASGITFFAYAMGWYRQAPGKERELVAAISTDGGSTYYADSVKGRFTISRDNAKNTVYLQMNSLKPEDTAVYYCAAKQRYVRTRGMDYWGQGTQVTVSS = high polyreactivity
QVQLVESGGGLVQAGGSLRLSCAASGFTFVGNAMGWSRQAPGKERELVATITSGGNTKYADSVKGRFTISRDNAKNTVYLQMHSLKPEDTAVYYCAAAKYNYRRFNYWGQGTQVTVSS = low polyreactivity
QVQLVETGGGLVQAGGSLRLSCAASGSIFVRNAMGWYRQAPGKERELVAAINRDGGRTYYADSVKGRFTISRDNAKNTVYLQMNSLKPEDTAVYYCNAGGVSFEYGYWGQGTQVTVSS = high polyreactivity
QVQLEESGGGIVQAGGSLRLSCAASGRIFGYYAMGWYRQAPGKERELVASIRRGTRTNYADSVKGRFTISRDNAKNTVYLQMNSLKPEDTAVYYCAATRFQFTTTPWYDYWGQGTQVTVSS = high polyreactivity
QVQLVESGGGLVQAGGSLRLSCAASGRIFIYNAMGWYRPAPGKERELVAAINRSGVSTHYADSVKGRFTISRDNEKNTVYLQMNSLKPEDTAVYYCARTVYGARSYDYWGQGTQVTVSS = low polyreactivity
QVQLVESGGGLVQAGGSLRLSCAASGIIFGHYAMGWYRQAPGKERELVARITYSGTRTYYADSVKGRFTISRDNAKNTVYLQMNSLKPEDTAVYYCAAGYAYPRWVTAGNYWGQGTQVTVSS = high polyreactivity
QVQLVESGGGLVQAGGSLRLSCASSGFTFVYNAMGWYRHAPGKERELVAAITSGGNTYYADSVKGRFTISRDNAKNTVYLQMNSLIPEDTAVYYCAKRGYGRYYAYDYWGQGTQVTVSS = high polyreactivity
QVQLVESGGGIVQAGGSLRLSCAASGTLGSYRQAPGNEWELVAAISQSGGSTYYADSVKGRFTISRDNAKNTVYLQMNSLKPEDTAVYYCAVDPRYGHPRRDYWGQGTQVTVSS = low polyreactivity
QVQLVESGGGLVQAGGSLRLSCAASGSTFWKYAMGWYRQAPGKERELVASIRSGGSTYYADSVKGRFTISRDNAKNTVYLQMNSLKPEDTAVYYCAAKSISVGGGVYGYRYYYWGQGTQVTVSS = high polyreactivity
QVQLVESGGGLVQAGGSLRLSCAASGSIFAKYYARGWYRQAPVKERELVAAITSGGITNYADSVKGRFTISRDNAKNSVYLQMNSLKPEDTAVYYCAARKWLSAFDYWGQGTQVTVSS = low polyreactivity
QVQLVESGGGLVQAGGSLRLSCAASGFTFAVYAMGWYRQAPGKERELVAAISRSGTRTYYADSVKGRFTISRDNAKNTVYLQMNSMKPEDTAVYYCAADKYRHGYDYWGQGTQVTVSS = low polyreactivity
QVQLHESGGGLVQAGGGLRLSCASSGSISSTGFMGWYRQAPGKEREPVAAIAPGTTTYYADSVKGRFTIRRDNAKNTVYLQMNSLRPEDTAVYYCAVFTDNRVAFLYWGQGTQVTVSS = low polyreactivity

----------
Test: yeast display, Sf9 membrane polyspecificity reagent, FACS + sequencing; frameworks hold sequencing errors
Quantity kind: polyreactivity (PSR sort gate)

QVHLVESGGGLVQAGGSLRLSCAASGGIFFPNAMGWYRQAPWKERELVAAISWSAGSTYYADSVKGRFTISRDNAKNTVYLELNSVKPEDTAVYYCAAAGSKNTVLYGYYYWGQGTQVTVSS = low polyreactivity
QVQLVESGGGLVQAGGSLRLSCAASGRIYPYYDMGWYRQAPGKERELVAAITSGTGTYYADSGKGRVTLSRDNAKTTVYFQMYSLKPEDTAVYYCNARRYLRGYWGQGTQVTLSS = low polyreactivity

----------
Test: yeast display, Sf9 membrane polyspecificity reagent, FACS + sequencing; frameworks hold sequencing errors
Quantity kind: polyreactivity (PSR sort gate)

QVQLVESGGGLVQAGGSLRLICAASGSTFGEYAMGWYRQAHGKERELVAVITSDDNTYYADSVKGRFTISRDNAKNTVYLQMNSLKPEDTAVYYCAARGYVLARSQQWRREYYWGQGTQVTVSS = high polyreactivity
QDQLVESGGGLVQAGGSLRLSCAASGSNFGPYAMGGYRHAPGKERELVARISGGGSTYYADSVKGRFTISRDNAKNTVYLQMNSLKPEDTAVYYCNVRNWAYWSHAIIYNYWGQGTLVTVSS = high polyreactivity
QVQLVESGGGLVQAGGSLRLSCAASGSTFSPYALGWYRQATGKERELVAAISASGVGTYYADSVKGRFTISRDYAKNPVYLQMNRLIPEDTAVYYCCRDYGWDISKGRYGYWGQGTQVTVSS = low polyreactivity
QVQLVESGGGLVQAGGSLRLSCAASGRIFLSYTMGWYRQAPGKERELVAAITSGGSTYYADSVKGRFTISRDNAKNTVYLQMNSLKPEDTAVYYCATDYGYSWYDYWGQGTQVTVSS = low polyreactivity
QVQLVESGGGLVQAGGSLRLSCAASGRTFLFNTMGWYRQAPGKERELVAAITRRGGSTYYADSVKGRFTISRDNAKNTVYLQMNSLKPEDTAVYYCNAPAYSPPGYYWGQGTQVTVSS = low polyreactivity

----------
Assay: yeast display, Sf9 membrane polyspecificity reagent, FACS + sequencing; frameworks hold sequencing errors
Quantity kind: polyreactivity (PSR sort gate)

QVQHVESGGGLVQAGGSLRLSCAASGNIIPYNAKAWYRQAPGKERELVATISSGGSTYYADSVKGRFTISRDNAKNTVYLQMNSLKPEDTAVYYCAARGRYPYLYGYWGQGTQVTVSS = high polyreactivity
QVQLVESGGGLVQAGGSLRLSCAASGFTFRYYAMGWYRQAPGKERELVASTYYADYVKGRFTISRDNAKNTVYLQMNSLKPEDTAVYYCNVDGTSSSPFVQKHKEMDYWGQGTQVTVSS = low polyreactivity
QVQLVESGGGLVQAGGSLRLSCAASGFIFKRYAMGWYRQAPGKERELVATISNSGGRTYYADSVKGRFTISRDNAKNTVYLQINSLKPEDTAVYYCDALPFWWGGYWGQGTQVTVSS = high polyreactivity
QVQLLESGGGLVQAGGSLRLSCAASGSTFCANAMGWYRQAPGKVWELVARITYSGGSTYYADSVKGRFTISRDNAKNTVYLQMNSLKPDDTAVYFCAADLPGKFDYWGQGTQVTVSS = low polyreactivity
QVQLVESGGGLVQAGGSLRLSCAASGSTIDTNAMGWYRQAPGTDRELVAAITSGGNTYADSVKGRFTISRDNAKNTVYLQMNSLKPEDTAVYYCAAEDVYTGWYDYCGQGTQVTVSS = low polyreactivity
QVQLVESGGGLVQAGGSLRLTCDASGSTFYHNAMGWYRQAPGKERELVAAITTSGGSTYYADSVKWRFTISRDNAKNTVYLQMNSLKPEDSAVYYCNVYRPYLAPYDYWGQGTQVTVSS = low polyreactivity
QVQLVESVGGLVQAGGSLRLSCAASGRTFRFYTMGWYRQAPGKERELVADISWTSGRTYYADSVKGRFTISRDNAKNTVYLQMKSLKPEDTAVYYCAAYFFSRYSLYDYWGQGTQVTVSS = high polyreactivity
QVHVVESWGGLVQAGGSLSLSCAASGLIIWMYTMGWYRQAPWKERELVAAIDWSGGSTYYADSVKGRFTISRDNAKNTVYLQMNSLKPEDTAVYYCAADPEPSYRFDYWGQGTQVTVSS = low polyreactivity
QVQLVESGGGLVQAGGSLRLSCAASGYNFGVYAMGWYRQAPRKERELVARITSGGSTNYADSVKGRFTISRDNAKITVYLQMNSLKPEDTAVYYCAAAVGNTDREYDYWGQGTQVTVSS = low polyreactivity
QVQLVESGGGLVQAGGSLRLSCAASGLTFYHYAMGSYRQAPGKERELVAAITTIGGSTNYADSVKGRFTISRDNAKNTVYLQMNSLKPADNAVYYCAKKLTDAQASSHYDYWGQGTQVTVSS = low polyreactivity
QVQLVESGGVLVQAGGSLRLSCAAYGFIFDYYAMGWYRQAPGKERELVAAITSRGGSTYYADSVKGRFTISRDNAKNTVYLQMNSLKPEDSAVYYCAARRRSAEYNYWGQGTQVTVSS = high polyreactivity
